# protocol_notes: Assay 2 Trypanosoma cruzi intracellular assay, cytotoxicity against VERO cells
# Format: cell-based
# cond: African green monkey, Vero cells infected with T. cruzi trypomastigotes, total number of Vero cells, minimum threshold 4.3, read-out: cytotoxicity against VERO cells, pEC50 (converted)
metric_name: EC50 at 72 h

EC50 at 72 h for O=C(Nc1ccc(F)c(-c2cn3nc(N4CCOCC4)cnc3n2)c1)N1CCCC1 [Example 1] is > 50.1 µM

* * *

# protocol_notes: Assay 5 Leishmania donovani intracellular assay, cytotoxicity against THP-1 cells
# Assay type: cell-based
# cond: human, total number of THP-1 cells, minimum threshold 4.3, read-out: cytotoxicity against THP-1 cells, pEC50 value (converted)
The following compounds are listed with their measured EC50 at 96 h values.

Solved entries:
| given_smiles | EC50 at 96 h |
| --- | --- |
| COc1ccc(CNCc2cccc(-c3cnc4nc(-c5cc(NC(=O)N6CCCC6)ccc5F)cn4n3)c2)cc1 | 2.51 to 10 µM |
| O=C(Nc1ccc(F)c(-c2cn3nc(N4CCOCC4)cnc3n2)c1)N1CCCC1 | > 50.1 µM |

EC50 at 96 h for "CN(C)Cc1cccc(-c2cnc3nc(-c4cc(NC(=O)N5CCCC5)ccc4F)cn3n2)c1" is 2.51 to 10 µM

EC50 at 96 h for "CN(C)Cc1ccc(-c2cnc3nc(-c4cc(NC(=O)N5CCCC5)ccc4F)cn3n2)cc1" is 2.51 to 10 µM

EC50 at 96 h for "CNCc1ccc(-c2cnc3nc(-c4cc(NC(=O)N5CCCC5)ccc4F)cn3n2)cc1" is 2.51 to 10 µM

EC50 at 96 h for "CNCc1cccc(-c2cnc3nc(-c4cc(NC(=O)N5CCCC5)ccc4F)cn3n2)c1" is 2.51 to 10 µM

EC50 at 96 h for "CC(C)OC(=O)Nc1ccc(F)c(-c2cn3nc(N4CCOCC4)cnc3n2)c1" is 2.51 to 10 µM

* * *

# protocol_notes: Assay 4 solubility assay, ChemiLuminescent Nitrogen Detection (CLND)
# Format: physicochemical
# cond: phosphate buffered saline, pH 7.4, aqueous buffer, kinetic from dmso stock, pH 7.4 PBS, from 10 mM DMSO stock, 1 h at room temperature
The following compounds are listed with their measured solubility at 1 h values.

Solved entries:
| given_smiles | solubility at 1 h |
| --- | --- |
| O=C(Nc1ccc(F)c(-c2cn3nc(-c4ccccn4)cnc3n2)c1)N1CCCC1 | 10 to 83 µM |
| CNCc1cccc(-c2cnc3nc(-c4cc(NC(=O)N5CCCC5)ccc4F)cn3n2)c1 | 100 to 416 µM |
| O=C(Nc1cnc2nc(-c3cc(NC(=O)N4CCCC4)ccc3F)cn2n1)C1CC1 | 10 to 83 µM |

Field: next compound
solubility at 1 h for "O=C(Nc1ccc(F)c(-c2cn3nc(-c4ccc(CN5CCOCC5)cc4)cnc3n2)c1)N1CCCC1" is 1 to 6 µM

* * *

# protocol_notes: Assay 4 solubility assay, ChemiLuminescent Nitrogen Detection (CLND)
# Format: physicochemical
# cond: phosphate buffered saline, pH 7.4, aqueous buffer, kinetic from dmso stock, pH 7.4 PBS, from 10 mM DMSO stock, 1 h at room temperature
The following compounds are listed with their measured solubility at 1 h values.

Solved entries:
| compound | solubility at 1 h |
| --- | --- |
| COCCOc1ccccc1-c1cnc2nc(-c3cc(NC(=O)N4CCCC4)ccc3F)cn2n1 [Example 29] | 10 to 83 µM |
| O=C(Nc1ccc(F)c(-c2cn3nc(-c4ccc(OCCN5CCOCC5)cc4)cnc3n2)c1)N1CCCC1 [Example 17] | 1 to 6 µM |
| CC1CN(c2cnc3nc(-c4cc(NC(=O)N5CCCC5)ccc4F)cn3n2)CCO1 (racemic) [Example 5] | 10 to 83 µM |
| CNCc1ccc(-c2cnc3nc(-c4cc(NC(=O)N5CCCC5)ccc4F)cn3n2)cc1 [Example 38] | 10 to 83 µM |
| O=C(Nc1ccc(F)c(-c2cn3nc(C4=CCOCC4)cnc3n2)c1)N1CCCC1 [Example 12] | 10 to 83 µM |

solubility at 1 h for COC(=O)Nc1cnc2nc(-c3cc(NC(=O)N4CCCC4)ccc3F)cn2n1 [Example 55] is 10 to 83 µM

solubility at 1 h for CC(C)=Cc1cnc2nc(-c3cc(NC(=O)N4CCCC4)ccc3F)cn2n1 [Example 47] is 10 to 83 µM

solubility at 1 h for CN(C)c1ccc(-c2cnc3nc(-c4cc(NC(=O)N5CCCC5)ccc4F)cn3n2)cn1 [Example 16] is 1 to 6 µM

* * *

The following compounds are listed with their measured solubility at 1 h values.
# protocol_notes: Assay 4 solubility assay, ChemiLuminescent Nitrogen Detection (CLND)
# Type: physicochemical
# cond: phosphate buffered saline, pH 7.4, aqueous buffer, kinetic from dmso stock, pH 7.4 PBS, from 10 mM DMSO stock, 1 h at room temperature

| compound | solubility at 1 h |
| --- | --- |
| COc1ccccc1-c1cnc2nc(-c3cc(NC(=O)N4CCCC4)ccc3F)cn2n1 [Example 30] | 10 to 83 µM |

solubility at 1 h for CN1CCN(c2cnc3nc(-c4cc(NC(=O)N5CCCC5)ccc4F)cn3n2)CC1 [Example 57] is 100 to 416 µM

solubility at 1 h for CN(C)Cc1ccc(-c2cnc3nc(-c4cc(NC(=O)N5CCCC5)ccc4F)cn3n2)cc1 [Example 37] is 10 to 83 µM

solubility at 1 h for O=C(Nc1ccc(F)c(-c2cn3nc(N4CCOCC4)cnc3n2)c1)N1CCC1 [Example 42] is 100 to 416 µM

solubility at 1 h for O=C(Nc1cnc2nc(-c3cc(NC(=O)N4CCCC4)ccc3F)cn2n1)C1CCCO1 (stereo not drawn) [Example 49] is 10 to 83 µM

solubility at 1 h for O=C(Nc1ccc(F)c(-c2nc3ncc(N4CCOCC4)nn3c2F)c1)N1CCCC1 [Example 40] is 100 to 416 µM

solubility at 1 h for CC(O)c1cnc2nc(-c3cc(NC(=O)N4CCCC4)ccc3F)cn2n1 (racemic) [Example 24] is 100 to 416 µM

solubility at 1 h for CC(C)OC(=O)Nc1ccc(F)c(-c2cn3nc(N4CCOCC4)cnc3n2)c1 [Example 48] is 10 to 83 µM

* * *

# protocol_notes: Assay 4 solubility assay, ChemiLuminescent Nitrogen Detection (CLND)
# Assay type: physicochemical
# cond: phosphate buffered saline, pH 7.4, aqueous buffer, kinetic from dmso stock, pH 7.4 PBS, from 10 mM DMSO stock, 1 h at room temperature
metric_name: solubility at 1 h

| molecule | solubility at 1 h |
| --- | --- |
| O=C(Nc1ccc(F)c(-c2cn3nc(-c4ccccc4CN4CCOCC4)cnc3n2)c1)N1CCCC1 | 10 to 83 µM |
| O=C(Nc1ccc(F)c(-c2cn3nc(C4CCOCC4)cnc3n2)c1)N1CCCC1 | 100 to 416 µM |
| O=C(Nc1ccc(F)c(-c2cn3nc(N4CCNCC4)cnc3n2)c1)N1CCCC1 | 100 to 416 µM |
| Cc1c(-c2cccc(NC(=O)N3CCCC3)c2)nc2ncc(N3CCOCC3)nn12 | 100 to 416 µM |
| O=C(Nc1ccc(Cl)c(-c2cn3nc(N4CCOCC4)cnc3n2)c1)N1CCCC1 | 10 to 83 µM |
| CC(C)OC(=O)Nc1cnc2nc(-c3cc(NC(=O)N4CCCC4)ccc3F)cn2n1 | 10 to 83 µM |
| C[C@@H]1CN(c2cnc3nc(-c4cc(NC(=O)N5CCCC5)ccc4F)cn3n2)C[C@H](C)O1 (single isomer, unassigned) | 10 to 83 µM |
| O=C(Nc1ccc(F)c(-c2cn3nc(-c4ccccc4)cnc3n2)c1)N1CCCC1 | 10 to 83 µM |

solubility at 1 h for "CC(C)c1cnc2nc(-c3cc(NC(=O)N4CCCC4)ccc3F)cn2n1" is 100 to 416 µM

solubility at 1 h for "CN(C)Cc1cccc(-c2cnc3nc(-c4cc(NC(=O)N5CCCC5)ccc4F)cn3n2)c1" is 100 to 416 µM
